Task for the reader: assign each of the following binders its reported pEC50.
target: T1, human DLL4, full length, on cells (human, UniProt Q9NR61 27-685); experiment: FACS, DLL4 cells
T1 construct: also called huDLL4 cells; human DLL4-293G
T1 sequence (Q9NR61 27-685 limits assumed): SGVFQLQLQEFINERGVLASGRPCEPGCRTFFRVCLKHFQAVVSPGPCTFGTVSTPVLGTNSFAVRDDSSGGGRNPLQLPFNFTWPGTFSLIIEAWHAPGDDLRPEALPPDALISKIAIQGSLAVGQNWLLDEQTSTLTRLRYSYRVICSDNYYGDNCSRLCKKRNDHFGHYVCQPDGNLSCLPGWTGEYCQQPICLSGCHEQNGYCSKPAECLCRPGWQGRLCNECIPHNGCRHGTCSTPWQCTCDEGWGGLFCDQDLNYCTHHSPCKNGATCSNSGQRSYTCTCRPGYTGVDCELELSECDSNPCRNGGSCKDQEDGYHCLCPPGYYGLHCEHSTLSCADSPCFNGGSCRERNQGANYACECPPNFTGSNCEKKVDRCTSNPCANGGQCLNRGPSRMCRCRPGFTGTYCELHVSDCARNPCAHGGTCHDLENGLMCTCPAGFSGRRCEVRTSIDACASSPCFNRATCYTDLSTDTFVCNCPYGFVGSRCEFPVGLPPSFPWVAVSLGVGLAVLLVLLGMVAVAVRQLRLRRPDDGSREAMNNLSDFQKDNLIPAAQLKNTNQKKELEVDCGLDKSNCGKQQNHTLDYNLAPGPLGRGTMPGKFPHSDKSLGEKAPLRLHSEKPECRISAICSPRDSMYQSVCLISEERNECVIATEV
Note on units: pEC50 is unitless, being -log10 of a concentration expressed in mol/L.

q: Return pEC50 (reported value) for this binder: 15D6 chimeric antibody (antibody, human IgG1, V domains shown, also called Chimera of 15D6) VH: EVQLQQSGPELAKPGSSVKISCKASGYTFTSSYISWIKQTTGQGLEYIGYINTGSGGTDYNEKFKDKATLTVDKSSRTVFMQLSSLTPGDSAVYYCAKSILLGSTYYLDYWGQGVMVTVSS VL: DTVLTQSPALAVSLGQRVTISCKASRSLSSPMYSYIYWYQQKLGQQPRLLIYRASTLASGVPARFSGSGSGTDFTLNIDPVEADDIATYFCQQSWSDPFTFGSGTKLEIKR
a: 8.77

q: Return pEC50 (reported value) for this binder: 14A11 chimeric antibody (antibody, human IgG1, V domains shown, also called Chimera of 14A11) VH: EVQLQQSGPELAKPGSSVKISCKASGYTFTNSYISWIKQTTGQGLEYVGYINTGSGGADYNEKFKGKATLTVDKSSRTAFMQLSSLTPGDSAVYYCAKSILLGSTCYFDYWGQGVLVTVSS VL: NTVLTQSPALAVSLGQRVTISCKASRSVSSPMYSYIYWYQQKPGQQPKLLIYRASTLASGVPARFSGSGSGTDFTLNIDPVEADDIATYFCQQSWSDPFTFGSGTKLEIKR
a: 8.79

q: Return pEC50 (reported value) for this binder: 1A11 chimeric antibody (antibody, human IgG1, V domains shown, also called Chimera of 1A11; 1A11 (chimera)) VH: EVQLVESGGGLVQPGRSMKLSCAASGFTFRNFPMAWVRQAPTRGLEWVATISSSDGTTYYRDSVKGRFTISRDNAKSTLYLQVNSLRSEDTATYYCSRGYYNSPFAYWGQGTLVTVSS VL: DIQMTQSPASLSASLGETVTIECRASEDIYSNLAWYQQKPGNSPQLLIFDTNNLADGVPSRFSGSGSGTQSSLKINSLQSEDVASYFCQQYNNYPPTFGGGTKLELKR
a: 7.71

q: Return pEC50 (reported value) for this binder: 38H12 chimeric antibody (antibody, human IgG1, V domains shown, also called Chimera of 38H12) VH: EVQLVESGGGLVQPGRSLKLSCAASGFTFSNYGMYWIRQAPTKGLQWVAFISHGGGITYYRDSVKGRFTISRDNAKSTLYLQMDSLRSEDTATYHCAALNWELGIDYWGQGVMVTVSS VL: DIQMTQSPASLSASLGETISIECRASEDIYSNLAWYQKKSGKSPQLLIYAANRLQDGVPSRFSGSGSGTQYSLKISGMQPEDEGDYFCLQGSKFPLTFGSGTKLEIKR
a: 8.83
